The reported measurements were obtained from patent US5272136A.

Assay: physchem
Assay type: physicochemical
Conditions: aqueous solution, pH 7
resultType: remaining at 0.25 h, 70 µM (%)
Dear colleague, please return just the value in %, with no unit written.

Query block: Look up remaining at 0.25 h, 70 µM for this molecule: O=C1O[C@H]([C@H](CO)O[C@H]2O[C@H](CO)[C@@H](O)[C@H](O)[C@H]2O)C(O)=C1O
Result block: 58

###

Experiment: physchem
Assay type: physicochemical
Settings: aqueous solution, pH 2
resultType: remaining at 1 h, 70 µM (%)
Dear colleague, please return just the value in %, with no unit written.

Query block: Look at this molecule and give its reported remaining at 1 h, 70 µM. O=C1O[C@H]([C@H](CO)O[C@H]2O[C@H](CO)[C@@H](O)[C@H](O)[C@H]2O)C(O)=C1O
Result block: 90
